Attribution: ChEMBL document CHEMBL1138453

Target: Free fatty acid receptor 1 (Homo sapiens)
Sequence (O14842 whole entry): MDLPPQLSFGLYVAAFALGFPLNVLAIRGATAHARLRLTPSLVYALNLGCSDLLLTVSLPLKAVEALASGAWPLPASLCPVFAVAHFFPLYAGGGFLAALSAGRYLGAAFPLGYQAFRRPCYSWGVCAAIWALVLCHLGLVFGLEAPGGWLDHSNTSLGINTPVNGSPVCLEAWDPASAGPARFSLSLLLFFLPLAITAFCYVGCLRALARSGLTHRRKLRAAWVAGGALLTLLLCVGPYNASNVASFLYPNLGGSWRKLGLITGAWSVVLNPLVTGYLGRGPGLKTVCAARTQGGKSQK
Test: Antagonist activity at human GPR40 expressed HEK293 cells assessed as effect on intracellular calcium concentration by FLIPR assay
measured parameter: IC50 (nM)

Solved entries:
CCCN1C(=O)c2ccccc2[C@@H](C(=O)O)[C@@H]1c1ccc(O[C@H]2CC[C@@H](C)CC2)cc1 ... 10
CCCN1C(=O)c2ccccc2[C@@H](C(=O)O)[C@@H]1c1ccc(Oc2cc(C)cc(C)c2)cc1 ... 2

(I) CCN1C(=O)c2ccccc2[C@@H](C(=O)O)[C@@H]1c1ccc(Oc2ccccc2)cc1
(II) CCCN1C(=O)c2ccccc2[C@@H](C(=O)O)[C@@H]1c1ccc(Oc2ccc(C(F)(F)F)cn2)cc1
(III) CCCN1C(=O)c2ccccc2[C@@H](C(=O)O)[C@@H]1c1ccc(Oc2ccc(C)c(C)c2)cc1
(IV) CCCN1C(=O)c2ccccc2[C@@H](C(=O)O)[C@@H]1c1ccc(OC)cc1
(V) CCCN1C(=O)c2ccccc2[C@@H](C(=O)O)[C@@H]1c1cccc(Cl)c1
Rank the 5 compounds: largest IC50 first, smallest last. Please, when replying, give the labels in the order that was requested. IV, V, II, I, III

====

Molecular target: Free fatty acid receptor 1 (Homo sapiens)
Experiment: Antagonist activity at human GPR40 expressed HEK293 cells assessed as effect on intracellular calcium concentration by FLIPR assay
pIC50: −log10 of the molar value.
measured parameter: pIC50

Solved entries:
O=C(O)[C@@H]1c2ccccc2C(=O)N(CC2CC2)[C@H]1c1ccc(Oc2ccccc2)cc1 ... 8.40
CC[C@H](C)CN1C(=O)c2ccccc2[C@@H](C(=O)O)[C@@H]1c1cc2ccccc2o1 ... 7.70
CC[C@H](C)CN1C(=O)c2ccccc2[C@@H](C(=O)O)[C@@H]1c1ccc(Cl)c(Cl)c1 ... 7.89
CN1C(=O)c2ccccc2[C@@H](C(=O)O)[C@@H]1c1ccc(Oc2ccccc2)cc1 ... 6.81
CCC(CC)CN1C(=O)c2ccccc2[C@@H](C(=O)O)[C@@H]1c1nc2ccccc2s1 ... 8.00
CCCN1C(=O)c2ccccc2[C@@H](C(=O)O)[C@@H]1c1ccc(Cl)c(Cl)c1 ... 7.05

(I) CCC(CC)CN1C(=O)c2ccccc2[C@@H](C(=O)O)[C@@H]1c1ccc(Cl)c(Cl)c1
(II) CCCN1C(=O)c2ccccc2[C@@H](C(=O)O)[C@@H]1c1ccc(OCc2ccccc2)cc1
Param metric = pIC50; output whichever of I , II has the minimum value. Pick one; state its label. II

====

System: Rattus norvegicus
Assay: Clearance in iv dosed bile duct cannulated rat
Assay type: ADME, organism-based
Conditions: in vivo
measured parameter: clearance (mL/min/kg)

(1) CCCN1C(=O)c2ccccc2[C@@H](C(=O)O)[C@@H]1c1ccc(Oc2cc(Cl)cc(Cl)c2)cc1
(2) CCCN1C(=O)c2ccccc2[C@@H](C(=O)O)[C@@H]1c1cnc(O[C@H]2CC[C@@H](C)CC2)nc1
Param metric = clearance; output whichever of 1 , 2 has the minimum value. Pick one; state its label. 1

====

Tested on: Liver microsomes
Test: Metabolic stability in rat liver microsomes assessed as clearance
Type: ADME, Microsome
measured parameter: clearance (µL/min/mg)

Solved entries:
CCCN1C(=O)c2ccccc2[C@@H](C(=O)O)[C@@H]1c1ccc(O[C@H]2CC[C@@H](C)CC2)cc1 ... 274
O=C(O)[C@@H]1c2ccccc2C(=O)N(CC2CC2)[C@H]1c1ccc(Oc2ccccc2)cc1 ... 120

(a) CCN1C(=O)c2ccccc2[C@@H](C(=O)O)[C@@H]1c1ccc(Oc2ccccc2)cc1
(b) CCCN1C(=O)c2ccccc2[C@@H](C(=O)O)[C@@H]1c1ccc(Oc2cc(C)cc(C)c2)cc1
Param metric = clearance; output whichever of a , b has the minimum value. Pick one; state its label. b
(b: 46 µL/min/mg, a: 97 µL/min/mg)

====

We begin with a simple list: items and their reported clearance.
System: Liver microsomes
Test: Metabolic stability in rat liver microsomes assessed as clearance
Assay type: ADME, Microsome

Please list clearance recorded for the compound CCCN1C(=O)c2ccccc2[C@@H](C(=O)O)[C@@H]1c1ccc(Oc2ccc(C(F)(F)F)cn2)cc1 < 14 µL/min/mg

Please list clearance recorded for the compound CCCN1C(=O)c2ccccc2[C@@H](C(=O)O)[C@@H]1c1ccc(OC)cc1 < 14 µL/min/mg

Please list clearance recorded for the compound CCCN1C(=O)c2ccccc2[C@@H](C(=O)O)[C@@H]1c1ccc(Cl)c(Cl)c1 < 14 µL/min/mg

Please list clearance recorded for the compound CCC(CC)CN1C(=O)c2ccccc2[C@@H](C(=O)O)[C@@H]1c1nc2ccccc2s1 < 18 µL/min/mg

Please list clearance recorded for the compound CCCN1C(=O)c2ccccc2[C@@H](C(=O)O)[C@@H]1c1ccc(Oc2ccc(C)c(C)c2)cc1 < 14 µL/min/mg

Please list clearance recorded for the compound CCCN1C(=O)c2ccccc2[C@@H](C(=O)O)[C@@H]1c1cccc(Cl)c1 < 14 µL/min/mg
